- System: ustekinumab
- test: Stabilization at low pH, Sypro orange fluorescence (Example 45)
- cond: excipient 5 mg/mL, ustekinumab 1 mg/mL, glycine acidification buffer pH 2.6, Sypro orange fluorescence
Documented % change in stability across a set of compounds
metricName: % change in stability

[
  {
    "compound": "OC[C@H]1O[C@H](OC[C@H]2O[C@H](O[C@]3(CO)O[C@H](CO)[C@@H](O)[C@@H]3O)[C@H](O)[C@@H](O)[C@@H]2O)[C@H](O)[C@@H](O)[C@H]1O",
    "resultValue": "2.6%"
  },
  {
    "compound": "O=C(O)CN(CCN(CC(=O)O)CC(=O)O)CCN(CC(=O)O)CC(=O)O",
    "resultValue": "11.8%"
  },
  {
    "compound": "O[C@H]1[C@H](O)[C@@H](O)CN2CC[C@H](O)[C@H]12",
    "resultValue": "95.9%"
  },
  {
    "compound": "O=C(CO)[C@@H](O)[C@H](O)[C@H](O)[C@H](O)CO",
    "resultValue": "2.6%"
  },
  {
    "compound": "NCCCNCCCCNCCCN",
    "resultValue": "90.0%"
  },
  {
    "compound": "OC[C@H]1O[C@H](O[C@H]2O[C@H](CO)[C@@H](O)[C@H](O)[C@H]2O)[C@H](O)[C@@H](O)[C@@H]1O",
    "resultValue": "2.5%"
  },
  {
    "compound": "NC[C@H]1O[C@H](O[C@H]2[C@H](O)[C@@H](O)[C@H](N)C[C@@H]2N)[C@H](N)[C@@H](O)[C@@H]1O",
    "resultValue": "5.9%"
  },
  {
    "compound": "OC[C@H]1OC(O)[C@@H](O)[C@@H](O)[C@@H]1O (stereo partly drawn)",
    "resultValue": "9.4%"
  },
  {
    "compound": "Nc1ccn([C@@H]2O[C@H](COP(=O)(O)O)[C@@H](O)[C@H]2O)c(=O)n1 [Cytidine monophosphate]",
    "resultValue": "83.1%"
  },
  {
    "compound": "OC[C@@H](O)C(O)[C@H](O)CO",
    "resultValue": "3.4%"
  },
  {
    "compound": "OC[C@@H](O)[C@@H](O[C@@H]1O[C@H](CO)[C@H](O)[C@H](O)[C@H]1O)[C@H](O)[C@@H](O)CO",
    "resultValue": "0.6%"
  },
  {
    "compound": "NC(=O)c1ccncc1 [Isonicotinamide]",
    "resultValue": "65.4%"
  },
  {
    "compound": "Nc1ncnc2c1ncn2[C@@H]1O[C@H](CO)[C@@H](O)[C@H]1O",
    "resultValue": "32.2%"
  },
  {
    "compound": "OC[C@H](O)[C@@H](O)[C@H](O)[C@@H](O)CO",
    "resultValue": "11.6%"
  },
  {
    "compound": "NC(=NO)c1ccccc1 [Benzamide oxime]",
    "resultValue": "70.6%"
  },
  {
    "compound": "CNC[C@H](O)[C@@H](O)[C@H](O)[C@H](O)CO",
    "resultValue": "41.8%"
  },
  {
    "compound": "NCCSSCCN",
    "resultValue": "17.8%"
  },
  {
    "compound": "CCNC(=O)CC[C@H](N)C(=O)O",
    "resultValue": "8.3%"
  }
]
